Molecular target: Histone deacetylase 3 (Homo sapiens, UniProt O15379)
Sequence (O15379 whole entry): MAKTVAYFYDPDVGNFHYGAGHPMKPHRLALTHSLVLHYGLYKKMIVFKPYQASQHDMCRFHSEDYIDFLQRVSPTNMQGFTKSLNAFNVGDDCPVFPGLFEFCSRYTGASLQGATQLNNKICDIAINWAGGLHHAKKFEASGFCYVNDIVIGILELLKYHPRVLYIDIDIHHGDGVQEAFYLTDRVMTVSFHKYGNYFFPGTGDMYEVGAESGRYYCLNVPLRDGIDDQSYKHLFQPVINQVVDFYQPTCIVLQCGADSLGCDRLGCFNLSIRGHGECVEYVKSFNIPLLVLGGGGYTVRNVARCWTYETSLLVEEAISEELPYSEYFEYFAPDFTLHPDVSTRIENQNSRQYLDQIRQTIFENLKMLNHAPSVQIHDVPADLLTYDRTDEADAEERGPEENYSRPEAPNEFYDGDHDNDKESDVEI
Test: Inhibition of full length human recombinant HDAC3 expressed in Sf9 baculovirus system using FAM-labeled acetylated peptide as substrate by measuring fluorescence intensity by EMSA method
pIC50: −log10 of the molar value.

- Chemical smiles: "O=C(NO)c1ccc(CN(C2CC2)S(=O)(=O)c2cc(F)c(F)c(F)c2F)cc1"
  pIC50: "< 6.00"
